system: human G12D mutant KRAS-positive pancreatic cancer line AsPC-1; assay: Non-anchorage-dependent cell growth inhibition, spheroid 3D cell culture (Test Example 3); assay type: cell-based; conditions: Homo sapiens, ASPC1, 144 h, AsPC-1 spheroid 3D culture, 6 days, CellTiter Glo 2.0
Assay Readout: IC50 (nM)

Compound | IC50, nM
Cc1ncsc1-c1ccc([C@H](CO)NC(=O)[C@@H]2C[C@@H](O)CN2C(=O)[C@H](C(C)C)n2cc(-c3ccc(COc4c(-c5c(C)c(F)cc6[nH]ncc56)c(C5CC5)cc5c(N(C)[C@H]6CCNC6)nc(OCCCF)nc45)cc3)nn2)cc1 (atropisomer, axis not shown) | 36

[I] COCCCOc1nc(N(C)[C@H]2CCNC2)c2cc(C3CC3)c(-c3c(C)c(F)cc4[nH]ncc34)c(OCc3ccc(-c4cn([C@H](C(=O)N5C[C@H](O)C[C@H]5C(=O)N[C@@H](CO)c5ccc(-c6scnc6C)cc5)C(C)C)nn4)cc3)c2n1 (atropisomer, axis not shown)
[II] Cc1ncsc1-c1ccc([C@H](CO)NC(=O)[C@@H]2C[C@@H](O)CN2C(=O)[C@H](C(C)C)n2cc(-c3ccc(COc4c(-c5c(C)c(F)cc6[nH]ncc56)c(C5CC5)cc5c(N[C@H]6CCNC6)nc(OC6CCOCC6)nc45)cc3)nn2)cc1 (atropisomer, axis not shown)
Data request: Would you kindly point out which of I and II has the smaller IC50 figure? Please identify the chosen entry by its label.
Data returned: II
(II: 7 nM, I: 39 nM)
